- target: hERG channel (Homo sapiens)
- Construct: expressed in transfected cells; host or cells: CHO (Chinese hamster ovary), CHOhERG
- Sequence (Q12809 whole entry): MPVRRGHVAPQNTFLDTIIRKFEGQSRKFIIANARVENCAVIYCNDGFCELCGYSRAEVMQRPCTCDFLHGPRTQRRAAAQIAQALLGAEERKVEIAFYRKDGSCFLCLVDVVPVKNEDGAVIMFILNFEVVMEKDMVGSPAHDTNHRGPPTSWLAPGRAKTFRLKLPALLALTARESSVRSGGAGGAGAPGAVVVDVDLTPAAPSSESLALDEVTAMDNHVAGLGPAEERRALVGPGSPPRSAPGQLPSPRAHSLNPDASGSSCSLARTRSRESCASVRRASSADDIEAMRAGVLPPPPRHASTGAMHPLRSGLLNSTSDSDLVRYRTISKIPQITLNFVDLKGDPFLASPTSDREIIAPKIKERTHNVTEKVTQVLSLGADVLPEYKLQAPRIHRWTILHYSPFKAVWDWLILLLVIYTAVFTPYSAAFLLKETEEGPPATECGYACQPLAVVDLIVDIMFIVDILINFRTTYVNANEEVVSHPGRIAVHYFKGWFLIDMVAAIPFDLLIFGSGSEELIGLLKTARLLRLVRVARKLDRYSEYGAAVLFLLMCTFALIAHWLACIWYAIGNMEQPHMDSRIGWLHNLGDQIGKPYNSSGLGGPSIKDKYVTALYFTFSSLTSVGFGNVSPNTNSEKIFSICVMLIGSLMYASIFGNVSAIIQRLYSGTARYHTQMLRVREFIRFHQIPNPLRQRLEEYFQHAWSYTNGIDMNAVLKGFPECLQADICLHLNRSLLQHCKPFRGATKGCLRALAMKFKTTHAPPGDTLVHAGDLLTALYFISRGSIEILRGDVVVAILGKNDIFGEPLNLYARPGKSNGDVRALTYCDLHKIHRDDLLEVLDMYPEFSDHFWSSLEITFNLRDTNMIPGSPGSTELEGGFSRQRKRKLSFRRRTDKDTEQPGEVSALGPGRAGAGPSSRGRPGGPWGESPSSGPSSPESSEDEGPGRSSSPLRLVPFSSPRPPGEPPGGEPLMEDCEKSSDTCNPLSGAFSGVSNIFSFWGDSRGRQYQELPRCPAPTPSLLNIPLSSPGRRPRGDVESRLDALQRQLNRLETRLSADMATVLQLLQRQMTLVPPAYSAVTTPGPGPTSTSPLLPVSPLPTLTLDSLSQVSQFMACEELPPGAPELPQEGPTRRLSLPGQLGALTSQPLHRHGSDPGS
- protocol.text: hERG channel inhibition assay (patch-clamp, CHOhERG cells);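 also: ratio above 30 indicates an adequate safety window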
- Assay type: cell-based
- cond: safety ratio
measured.metric: hERG IC20/TLR7 IC50
Answer field: number only, no words.

- compound: "C[C@@H]1CN(c2ccc(C#N)c3ncccc23)C[C@H](CN2CCN(c3ccncc3)CC2)O1 [ER-888286, reference compound]"
  hERG IC20/TLR7 IC50: 0.3

Missing value: hERG IC20/TLR7 IC50, hERG channel (Homo sapiens), entry C[C@@H]1CN(c2ccc(C#N)c3ncccc23)C[C@H](CN2CCN(c3ccccn3)CC2)O1 [ER-888285, reference compound] . Fill in?
8.4

API: value(readout=hERG IC20/TLR7 IC50, system=hERG channel (Homo sapiens)) for record Cc1cc(NC2CCN(C[C@H]3CN(c4ccc(C#N)c5ncccc45)C[C@@H](C)O3)CC2)cc(CO)n1 [Example 5]
121.8

# value lookup — system hERG channel (Homo sapiens), readout hERG IC20/TLR7 IC50, item C[C@@H]1CN(c2ccc(C#N)c3ncccc23)C[C@H](CN2CCN(c3ccccc3)CC2)O1 [ER-887258, reference compound]
8.1

Recorded hERG IC20/TLR7 IC50 for C[C@@H]1CN(c2ccc(C#N)c3ncccc23)C[C@H](CN2CCN(c3ccc(Cl)cc3)CC2)O1 [Example R2, reference compound] with hERG channel (Homo sapiens), please?
1.3

###

Quick reference for pIC50 among some molecules
- target: human TLR7 (Homo sapiens)
- protocol.text: HEK293-Blue-hTLR-7 cells assay
- cond: HEK293-Blue-hTLR7 cells, R848 stimulation, 20 hrs, SEAP reporter; read-out: HEK/hTLR7 IC50
- Description: The following tests were carried out in order to determine the activity of the compounds of formula (I) and (Ia) in HEK293-Blue-hTLR-7/8/9 cells assay. HEK293-Blue-hTLR-7 cells assay: A stable HEK293-Blue-hTLR-7 cell line was purchased from InvivoGen (Cat. #: hkb-htlr7, San Diego, Calif., USA). These cells were originally designed for studying the stimulation of human TLR7 by monitoring the activation of NE-κB. […]
// field semantics: pIC50 = negative decimal log of concentration (mol/L)

- smiles.str: "Cc1cc(N2CCC[C@H](NC[C@H]3CN(c4ccc(C#N)c5ncccc45)C[C@@H](C)O3)C2)cc(CO)n1"
  readout.value: 7.47
- smiles.str: "Cc1cc(NC2CN(C[C@H]3CN(c4ccc(C#N)c5ncccc45)C[C@@H](C)O3)C2)cc(C)n1"
  readout.value: 7.59
- smiles.str: "C[C@@H]1CN(c2ccc(C#N)c3ncccc23)C[C@H](CNC2CCN(c3ccnc(N)c3)CC2)O1"
  readout.value: 6.70
- smiles.str: "C[C@@H]1CN(c2ccc(C#N)c3ncccc23)C[C@H](CN2CCN(c3cc(N)nc(CO)c3)CC2)O1"
  readout.value: 7.41

# input molecule: "Cc1cc(N2CCN(C[C@H]3CN(c4ccc(C#N)c5ncccc45)C[C@@H](C)O3)CC2)cc(N)n1" ; wanted: its pIC50
8.10

Record request: pIC50 value, item "Cc1cc(N2CC[C@H](F)[C@H](NC[C@H]3CN(c4ccc(C#N)c5ncccc45)C[C@@H](C)O3)C2)cc(CO)n1"
7.92

# pIC50 lookup, item "Cc1cc(NC2CCN(C[C@H]3CN(c4ccc(C#N)c5ncccc45)C[C@@H](C)O3)CC2)cc(CO)n1"
7.23

###

- protocol.text: Human microsome stability assay
- Assay type: in vitro ADME
- cond: 1 μM test compound, 0.5 mg/mL liver microsomal protein, 37° C.
# reported Clearance of Human microsome; entries follow
Give the value, in units of mL/min/kg, as a plain number.

- molecule: "Cc1cc(N2CC[C@@H](O)[C@H](NC[C@H]3CN(c4ccc(C#N)c5ncccc45)C[C@@H](C)O3)C2)cc(CO)n1"
  measured.metric: "Clearance of Human microsome"
  readout.value: 7.67
- molecule: "Cc1cc(N2CCN(C[C@H]3CN(c4ccc(C#N)c5ncccc45)C[C@@H](C)O3)[C@@H](C)C2)cc(CO)n1"
  measured.metric: "Clearance of Human microsome"
  readout.value: 6.15
- molecule: "Cc1cc(N2CC[C@@H](NC[C@H]3CN(c4ccc(C#N)c5ncccc45)C[C@@H](C)O3)C2)cc(CO)n1"
  measured.metric: "Clearance of Human microsome"
  readout.value: 6.25
- molecule: "Cc1cc(N2CCN(C[C@H]3CN(c4ccc(C#N)c5ncccc45)C[C@@H](C)O3)CC2)cc(CO)n1"
  measured.metric: "Clearance of Human microsome"
  readout.value: 7.72
- molecule: "C[C@@H]1CN(c2ccc(C#N)c3ncccc23)C[C@H](CN2CC3(C2)CN(c2ccnc(C(C)(C)O)c2)C3)O1"
  measured.metric: "Clearance of Human microsome"
  readout.value: 6.87

I'd like to know its Clearance of Human microsome. The molecule in question is "Cc1cc(NC2CCN(C[C@H]3CN(c4ccc(C#N)c5ncccc45)C[C@@H](C)O3)CC2)cc(CO)n1"
7.47

Can you share its Clearance of Human microsome? I mean this molecule: "Cc1cc(N2CC(N(C)C[C@H]3CN(c4ccc(C#N)c5ncccc45)C[C@@H](C)O3)C2)cc(CO)n1"
6.15

For the molecule shown here, CC(O)c1cc(N2CC3(CN(C[C@H]4CN(c5ccc(C#N)c6ncccc56)C[C@@H](C)O4)C3)C2)ccn1 (stereo partly shown) , give the reported Clearance of Human microsome.
7.66

###

Entries and their measured IC50 follow.
- target: human TLR7 (Homo sapiens)
- protocol.text: HEK293-Blue-hTLR-7 cells assay
- cond: HEK293-Blue-hTLR7 cells, R848 stimulation, 20 hrs, SEAP reporter; read-out: HEK/hTLR7 IC50
Provide the reading as a plain figure in µM.

Example entries begin here.
- molecule: "Cc1cc(N2CCC[C@@H](N(C)C[C@H]3CN(c4ccc(C#N)c5ncccc45)C[C@@H](C)O3)C2)cc(CO)n1"
  readout.value: 0.017
- molecule: "Cc1cc(N2CCC[C@@H](NC[C@H]3CN(c4ccc(C#N)c5ncccc45)C[C@@H](C)O3)C2)cc(CO)n1"
  readout.value: 0.026
- molecule: "Cc1cc(N2CC[C@@H](F)[C@H](NC[C@H]3CN(c4ccc(C#N)c5ncccc45)C[C@@H](C)O3)C2)cc(CO)n1"
  readout.value: 0.012

Next molecule, IC50 to be filled in.
Looking for the measured IC50 of CC(O)c1cc(N2CC3(CN(C[C@H]4CN(c5ccc(C#N)c6ncccc56)C[C@@H](C)O4)C3)C2)ccn1 (stereo partly shown) , can you help?
0.032

###

Consider the following compounds and their measured pIC50 readings.
- target: human TLR7 (Homo sapiens, UniProt Q9NYK1)
- Sequence (Q9NYK1 27-1049): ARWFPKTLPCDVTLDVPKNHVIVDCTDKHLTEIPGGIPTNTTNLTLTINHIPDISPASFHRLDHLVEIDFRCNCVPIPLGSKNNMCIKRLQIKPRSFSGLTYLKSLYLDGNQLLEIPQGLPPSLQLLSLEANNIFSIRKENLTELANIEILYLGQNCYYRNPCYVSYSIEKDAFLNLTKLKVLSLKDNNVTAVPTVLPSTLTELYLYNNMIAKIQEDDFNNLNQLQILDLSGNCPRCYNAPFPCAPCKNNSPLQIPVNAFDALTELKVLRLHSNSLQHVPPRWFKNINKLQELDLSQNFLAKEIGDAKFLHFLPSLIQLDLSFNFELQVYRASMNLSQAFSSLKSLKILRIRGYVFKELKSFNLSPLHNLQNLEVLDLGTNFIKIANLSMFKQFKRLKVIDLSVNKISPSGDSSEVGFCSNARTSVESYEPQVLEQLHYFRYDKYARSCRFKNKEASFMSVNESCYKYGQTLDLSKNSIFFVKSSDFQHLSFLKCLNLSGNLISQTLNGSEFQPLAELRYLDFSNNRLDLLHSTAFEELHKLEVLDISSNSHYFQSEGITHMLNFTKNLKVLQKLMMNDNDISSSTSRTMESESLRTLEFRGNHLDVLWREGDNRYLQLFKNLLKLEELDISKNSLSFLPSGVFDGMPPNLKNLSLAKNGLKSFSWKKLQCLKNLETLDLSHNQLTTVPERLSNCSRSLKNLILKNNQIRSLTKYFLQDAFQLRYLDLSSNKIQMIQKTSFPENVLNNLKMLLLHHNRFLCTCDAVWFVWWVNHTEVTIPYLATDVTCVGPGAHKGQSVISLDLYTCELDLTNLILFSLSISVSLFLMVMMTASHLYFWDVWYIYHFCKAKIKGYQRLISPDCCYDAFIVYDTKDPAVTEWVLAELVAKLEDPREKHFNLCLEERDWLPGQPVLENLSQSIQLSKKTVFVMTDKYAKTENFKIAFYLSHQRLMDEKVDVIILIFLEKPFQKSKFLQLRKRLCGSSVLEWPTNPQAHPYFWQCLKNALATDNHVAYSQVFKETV
- protocol.text: HEK293-Blue-hTLR-7 cells assay
- cond: HEK293-Blue-hTLR7 cells, R848 stimulation, 20 hrs, SEAP reporter; read-out: HEK/hTLR7 IC50
Please keep in mind that pIC50 is minus log10 of the molar concentration; only the number is needed.

The examples below pair each entry with its known result.
- compound: "Cc1cc(C2CCN(C[C@H]3CN(c4ccc(C#N)c5ncccc45)C[C@@H](C)O3)CC2)cc(N)n1 [Example 43]"
  readout.value: 8.15
- compound: "Cc1cc(N2CCC23CN(C[C@H]2CN(c4ccc(C#N)c5ncccc45)C[C@@H](C)O2)C3)ccn1 [Example 15]"
  readout.value: 8.15
- compound: "C[C@@H]1CN(c2ccc(C#N)c3ncccc23)C[C@H](CN2CC3(C2)CN(c2ccnc(C4CC4)c2)C3)O1 [Example 49]"
  readout.value: 7.89
- compound: "Cc1cc(N2CC(NC[C@H]3CN(c4ccc(C#N)c5ncccc45)C[C@@H](C)O3)C2)cc(CO)n1 [Example 30]"
  readout.value: 7.19
- compound: "Cc1cc(N2CCN(C[C@H]3CN(c4ccc(C#N)c5ncccc45)C[C@@H](C)O3)[C@@H](C)C2)cc(CO)n1 [Example 4A]"
  readout.value: 8.05

Any idea what its pIC50 is? The compound is C[C@@H]1CN(c2ccc(C#N)c3ncccc23)C[C@H](CN2CCN(c3ccnc(N)c3)CC2)O1 [Example 19]
8.22

Data request, read-out pIC50, for Cc1cc(N2CC[C@H](NC[C@H]3CN(c4ccc(C#N)c5ncccc45)C[C@@H](C)O3)C2)cc(CO)n1 [Example 29]
6.81

###

- target: human TLR8 (Homo sapiens)
- Sequence (Q9NR97 27-1041): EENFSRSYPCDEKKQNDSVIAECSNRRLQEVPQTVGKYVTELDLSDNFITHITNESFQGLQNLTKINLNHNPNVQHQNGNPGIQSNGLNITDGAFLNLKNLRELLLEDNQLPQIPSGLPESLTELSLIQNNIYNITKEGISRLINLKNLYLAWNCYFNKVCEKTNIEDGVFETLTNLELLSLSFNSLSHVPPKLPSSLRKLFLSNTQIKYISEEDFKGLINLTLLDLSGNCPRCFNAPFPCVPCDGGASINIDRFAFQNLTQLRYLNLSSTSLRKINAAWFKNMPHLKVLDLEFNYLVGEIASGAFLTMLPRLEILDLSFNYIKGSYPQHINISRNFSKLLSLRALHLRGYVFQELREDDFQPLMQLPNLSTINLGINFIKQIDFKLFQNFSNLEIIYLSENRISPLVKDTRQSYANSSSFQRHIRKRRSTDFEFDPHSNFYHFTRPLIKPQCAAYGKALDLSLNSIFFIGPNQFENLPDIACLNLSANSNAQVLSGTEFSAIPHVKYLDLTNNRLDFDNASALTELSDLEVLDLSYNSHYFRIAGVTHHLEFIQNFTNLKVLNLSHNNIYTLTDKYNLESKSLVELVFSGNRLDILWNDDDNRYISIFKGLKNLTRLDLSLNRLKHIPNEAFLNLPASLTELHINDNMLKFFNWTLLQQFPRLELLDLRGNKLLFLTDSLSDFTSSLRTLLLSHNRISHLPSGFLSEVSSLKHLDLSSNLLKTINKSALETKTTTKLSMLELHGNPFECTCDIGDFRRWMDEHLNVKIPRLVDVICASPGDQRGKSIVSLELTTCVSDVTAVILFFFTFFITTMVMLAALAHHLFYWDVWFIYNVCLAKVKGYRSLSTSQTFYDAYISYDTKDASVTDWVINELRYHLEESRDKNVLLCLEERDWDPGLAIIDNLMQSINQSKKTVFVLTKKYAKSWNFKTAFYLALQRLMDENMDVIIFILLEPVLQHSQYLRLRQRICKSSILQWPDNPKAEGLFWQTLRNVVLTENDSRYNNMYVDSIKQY
- protocol.text: HEK293-Blue-hTLR-8 cells assay
- cond: HEK293-Blue-hTLR8 cells, R848 stimulation, 20 hrs, SEAP reporter; read-out: HEK/hTLR8 IC50
Some compounds, each annotated with its measured log10(IC50).
Parameter value (number): base-10 log of IC50 in nM.

Some solved entries appear below for comparison.
- compound: "Cc1cc(C2CCN(C[C@H]3CN(c4ccc(C#N)c5ncccc45)C[C@@H](C)O3)CC2)cc(N)n1 [Example 43]"
  log10(IC50): 1.26
- compound: "Cc1cc(N2CCC[C@@H](N(C)C[C@H]3CN(c4ccc(C#N)c5ncccc45)C[C@@H](C)O3)C2)cc(CO)n1 [Example 35]"
  log10(IC50): 0.95
- compound: "Cc1cc(N2CC(NC[C@H]3CN(c4ccc(C#N)c5ncccc45)C[C@@H](C)O3)C2)cc(CO)n1 [Example 30]"
  log10(IC50): 1.15
- compound: "Cc1cc(N2CC3(CN(C[C@H]4CN(c5ccc(C#N)c6ncccc56)C[C@@H](C)O4)C3)C2)cc(C(C)O)n1 (stereo partly shown) [Example 44]"
  log10(IC50): 1.48
- compound: "Cc1cc(NC2CN(C[C@H]3CN(c4ccc(C#N)c5ncccc45)C[C@@H](C)O3)C2)cc(C)n1 [Example 7]"
  log10(IC50): 1.49

Give the measured log10(IC50) of Cc1cc(N2C[C@H]3CN(C[C@H]4CN(c5ccc(C#N)c6ncccc56)C[C@@H](C)O4)C[C@H]3C2)cc(CO)n1 [Example 10] .
1.34

Name the recorded log10(IC50) for Cc1cc(N2CCN(C[C@H]3CN(c4ccc(C#N)c5ncccc45)C[C@@H](C)O3)[C@H](C)C2)cc(CO)n1 [Example 4B] .
0.70

log10(IC50) for C[C@@H]1CN(c2ccc(C#N)c3ncccc23)C[C@H](CN[C@H]2CCCN(c3ccnc(N)c3)C2)O1 [Example 22] ?
1.58

meta.source: patent US20210269451A1
